// reported koff for each item listed
- ASSAYED TARGET: T1, ALFA tag-human Fc
- T1 chain: SRLEEELRRRLTE
- PROTOCOL TEXT: SPR
RECORDED ENDPOINT: koff (s⁻¹)

BINDER | UNITS TEXT | VALUE MEASURED
sdAb ALFA SERR-TEV-His (VHH) VHH: EVQLQESGGGLVQPGGSLRLSCTASGVTISALNAMAMGWYRQAPGERRVMVAAVASGGNAMYDESVQGRFTVTRDFTNKMVSLQMDNLKPEDTAVYYCHVLEDRVDSFHDYWGQGTQVTVSS | s⁻¹ | 0.026
sdAb ALFA WT-TEV-His (VHH) VHH: EVQLQESGGGLVQPGGSLRLSCTASGVTISALNAMAMGWYRQAPGERRVMVAAVSERGNAMYRESVQGRFTVTRDFTNKMVSLQMDNLKPEDTAVYYCHVLEDRVDSFHDYWGQGTQVTVSS | s⁻¹ | 2.7e-05
sdAb ALFA SER-TEV-His (VHH) VHH: EVQLQESGGGLVQPGGSLRLSCTASGVTISALNAMAMGWYRQAPGERRVMVAAVASGGNAMYRESVQGRFTVTRDFTNKMVSLQMDNLKPEDTAVYYCHVLEDRVDSFHDYWGQGTQVTVSS | s⁻¹ | 0.011
sdAb ALFA E-TEV-His (VHH) VHH: EVQLQESGGGLVQPGGSLRLSCTASGVTISALNAMAMGWYRQAPGERRVMVAAVSSRGNAMYRESVQGRFTVTRDFTNKMVSLQMDNLKPEDTAVYYCHVLEDRVDSFHDYWGQGTQVTVSS | s⁻¹ | 0.0039
sdAb ALFA SE-TEV-His (VHH) VHH: EVQLQESGGGLVQPGGSLRLSCTASGVTISALNAMAMGWYRQAPGERRVMVAAVASRGNAMYRESVQGRFTVTRDFTNKMVSLQMDNLKPEDTAVYYCHVLEDRVDSFHDYWGQGTQVTVSS | s⁻¹ | 0.0073
